Cited source: paper PMC11695783

- Tested on: Mycoplasma pneumoniae strain M129 (ATCC 29342)
- experiment summary: Time-kill curves
- Assay type: cell-based
- Design: unit not given here
- protocol conditions: 32×MIC; time 12
measured parameter: M. pneumoniae count in time-kill curve

compound	system name	M. pneumoniae count in time-kill curve
CC[C@H]1OC(=O)[C@H](C)[C@@H](O[C@H]2C[C@@](C)(OC)[C@@H](O)[C@H](C)O2)[C@H](C)[C@@H](O[C@@H]2O[C@H](C)C[C@H](N(C)C)[C@H]2O)[C@](C)(O)C[C@@H](C)C(=O)[C@H](C)[C@@H](O)[C@]1(C)O	Mycoplasma pneumoniae strain M129 (ATCC 29342)	6.133

Shifting focus to the compound that follows.
Ask: State its M. pneumoniae count in time-kill curve for this compound: C=C[C@]1(C)C[C@@H](OC(=O)CSCCN(CC)CC)[C@]2(C)[C@H](C)CC[C@]3(CCC(=O)[C@H]32)[C@@H](C)[C@@H]1O [tiamulin, Tiamulin, reference compound]
Reply: 6.569

---

Listed below: M. pneumoniae count in time-kill curve values for each entry.
- Test system: Mycoplasma pneumoniae strain M129 (ATCC 29342)
- experiment summary: Time-kill curves
- Format: cell-based
- Design: unit not given here
- protocol conditions: 32×MIC; time 60
Quick one: just the number, no unit, thanks!

Solved entries (count: 4):
compound	M. pneumoniae count in time-kill curve
CC[C@H]1OC(=O)[C@H](C)[C@@H](O[C@H]2C[C@@](C)(OC)[C@@H](O)[C@H](C)O2)[C@H](C)[C@@H](O[C@@H]2O[C@H](C)C[C@H](N(C)C)[C@H]2O)[C@](C)(O)C[C@@H](C)C(=O)[C@H](C)[C@@H](O)[C@]1(C)O [erythromycin]	3.2228
CN(C)[C@@H]1C(O)=C(C(N)=O)C(=O)[C@@]2(O)C(O)=C3C(=O)c4c(O)cccc4[C@@](C)(O)[C@H]3C[C@@H]12 [tetracycline]	3.497
O=C(O)c1cn(C2CC2)c2cc(N3CCNCC3)c(F)cc2c1=O [ciprofloxacin]	3.5568
C=CC1(C)CC(OC(=O)CSc2ccc(NC(=O)Cc3ccc([N+](=O)[O-])cc3)cc2)C2(C)C(C)CCC3(CCC(=O)C32)C(C)C1O (centres unmarked) [compound 16C]	3.568

Ask: Output reported M. pneumoniae count in time-kill curve of the compound C=C[C@]1(C)C[C@@H](OC(=O)CSCCN(CC)CC)[C@]2(C)[C@H](C)CC[C@]3(CCC(=O)[C@H]32)[C@@H](C)[C@@H]1O [tiamulin, Tiamulin, reference compound] on Mycoplasma pneumoniae strain M129 (ATCC 29342).
Reply: 3.249

---

Listed below: M. pneumoniae count in time-kill curve values for each entry.
- Test system: Mycoplasma pneumoniae strain M129 (ATCC 29342)
- experiment summary: Time-kill curves
- Assay type: cell-based
- Set-up: unit not given here
- protocol conditions: 64×MIC; time 36
Quick one: just the number, no unit, thanks!

compound	val
CC[C@H]1OC(=O)[C@H](C)[C@@H](O[C@H]2C[C@@](C)(OC)[C@@H](O)[C@H](C)O2)[C@H](C)[C@@H](O[C@@H]2O[C@H](C)C[C@H](N(C)C)[C@H]2O)[C@](C)(O)C[C@@H](C)C(=O)[C@H](C)[C@@H](O)[C@]1(C)O	3.638

Ask: State its M. pneumoniae count in time-kill curve for this compound: C=C[C@]1(C)C[C@@H](OC(=O)CSCCN(CC)CC)[C@]2(C)[C@H](C)CC[C@]3(CCC(=O)[C@H]32)[C@@H](C)[C@@H]1O [tiamulin, Tiamulin, reference compound]
Reply: 3.61

Ask: State its M. pneumoniae count in time-kill curve for this compound: O=C(O)c1cn(C2CC2)c2cc(N3CCNCC3)c(F)cc2c1=O
Reply: 3.756

Ask: State its M. pneumoniae count in time-kill curve for this compound: C=CC1(C)CC(OC(=O)CSc2ccc(NC(=O)Cc3ccc([N+](=O)[O-])cc3)cc2)C2(C)C(C)CCC3(CCC(=O)C32)C(C)C1O (centres unmarked) [compound 16C]
Reply: 3.5819

Ask: State its M. pneumoniae count in time-kill curve for this compound: CN(C)[C@@H]1C(O)=C(C(N)=O)C(=O)[C@@]2(O)C(O)=C3C(=O)c4c(O)cccc4[C@@](C)(O)[C@H]3C[C@@H]12
Reply: 3.779

---

Listed below: M. pneumoniae count in time-kill curve values for each entry.
- System: Mycoplasma pneumoniae strain M129 (ATCC 29342)
- experiment summary: Time-kill curves
- Assay type: cell-based
- Parameters: unit not given here
- protocol conditions: 8×MIC; time 60
Quick one: just the number, no unit, thanks!

Solved entries (count: 4):
molecule	system name	M. pneumoniae count in time-kill curve
CC[C@H]1OC(=O)[C@H](C)[C@@H](O[C@H]2C[C@@](C)(OC)[C@@H](O)[C@H](C)O2)[C@H](C)[C@@H](O[C@@H]2O[C@H](C)C[C@H](N(C)C)[C@H]2O)[C@](C)(O)C[C@@H](C)C(=O)[C@H](C)[C@@H](O)[C@]1(C)O	Mycoplasma pneumoniae strain M129 (ATCC 29342)	3.326
C=CC1(C)CC(OC(=O)CSc2ccc(NC(=O)Cc3ccc([N+](=O)[O-])cc3)cc2)C2(C)C(C)CCC3(CCC(=O)C32)C(C)C1O (centres unmarked) [compound 16C]	Mycoplasma pneumoniae strain M129 (ATCC 29342)	3
CN(C)[C@@H]1C(O)=C(C(N)=O)C(=O)[C@@]2(O)C(O)=C3C(=O)c4c(O)cccc4[C@@](C)(O)[C@H]3C[C@@H]12	Mycoplasma pneumoniae strain M129 (ATCC 29342)	3.5
C=C[C@]1(C)C[C@@H](OC(=O)CSCCN(CC)CC)[C@]2(C)[C@H](C)CC[C@]3(CCC(=O)[C@H]32)[C@@H](C)[C@@H]1O [tiamulin, Tiamulin, reference compound]	Mycoplasma pneumoniae strain M129 (ATCC 29342)	3.839

Ask: State its M. pneumoniae count in time-kill curve for this molecule: O=C(O)c1cn(C2CC2)c2cc(N3CCNCC3)c(F)cc2c1=O
Reply: 3.8395

---

Listed below: M. pneumoniae count in time-kill curve values for each entry.
- System: Mycoplasma pneumoniae strain M129 (ATCC 29342)
- experiment summary: Time-kill curves
- Assay type: cell-based
- Design: unit not given here
- protocol conditions: 8×MIC; time 0

Solved entries (count: 4):
molecule	measured parameter	val
O=C(O)c1cn(C2CC2)c2cc(N3CCNCC3)c(F)cc2c1=O	M. pneumoniae count in time-kill curve	7.07
C=C[C@]1(C)C[C@@H](OC(=O)CSCCN(CC)CC)[C@]2(C)[C@H](C)CC[C@]3(CCC(=O)[C@H]32)[C@@H](C)[C@@H]1O [tiamulin, Tiamulin, reference compound]	M. pneumoniae count in time-kill curve	6.339
C=CC1(C)CC(OC(=O)CSc2ccc(NC(=O)Cc3ccc([N+](=O)[O-])cc3)cc2)C2(C)C(C)CCC3(CCC(=O)C32)C(C)C1O (centres unmarked) [compound 16C]	M. pneumoniae count in time-kill curve	7.429
CN(C)[C@@H]1C(O)=C(C(N)=O)C(=O)[C@@]2(O)C(O)=C3C(=O)c4c(O)cccc4[C@@](C)(O)[C@H]3C[C@@H]12	M. pneumoniae count in time-kill curve	6.522

Shifting focus to the molecule that follows.
Ask: Output reported M. pneumoniae count in time-kill curve of the molecule CC[C@H]1OC(=O)[C@H](C)[C@@H](O[C@H]2C[C@@](C)(OC)[C@@H](O)[C@H](C)O2)[C@H](C)[C@@H](O[C@@H]2O[C@H](C)C[C@H](N(C)C)[C@H]2O)[C@](C)(O)C[C@@H](C)C(=O)[C@H](C)[C@@H](O)[C@]1(C)O on Mycoplasma pneumoniae strain M129 (ATCC 29342).
Reply: 7.138

---

- System: Mycoplasma pneumoniae strain M129 (ATCC 29342)
- experiment summary: Time-kill curves
- Format: cell-based
- Parameters: unit not given here
- protocol conditions: 4×MIC; time 0
Label scheme for M. pneumoniae count in time-kill curve: lower than 7 is not met, 7 and above is met.

Illustrative cases are given below, each with its answer.
compound	group label
C=C[C@]1(C)C[C@@H](OC(=O)CSCCN(CC)CC)[C@]2(C)[C@H](C)CC[C@]3(CCC(=O)[C@H]32)[C@@H](C)[C@@H]1O [tiamulin, Tiamulin, reference compound]	not met
CN(C)[C@@H]1C(O)=C(C(N)=O)C(=O)[C@@]2(O)C(O)=C3C(=O)c4c(O)cccc4[C@@](C)(O)[C@H]3C[C@@H]12 [tetracycline]	not met

Next compound, please.
Ask: Determine whether measured M. pneumoniae count in time-kill curve meets or exceeds 7 for C=CC1(C)CC(OC(=O)CSc2ccc(NC(=O)Cc3ccc([N+](=O)[O-])cc3)cc2)C2(C)C(C)CCC3(CCC(=O)C32)C(C)C1O (centres unmarked) [compound 16C]
Reply: met

---

Listed below: M. pneumoniae count in time-kill curve values for each entry.
- Tested on: Mycoplasma pneumoniae strain M129 (ATCC 29342)
- experiment summary: Time-kill curves
- Assay type: cell-based
- Set-up: unit not given here
- protocol conditions: 32×MIC; time 12
Quick one: just the number, no unit, thanks!

molecule	measured parameter	val
C=CC1(C)CC(OC(=O)CSc2ccc(NC(=O)Cc3ccc([N+](=O)[O-])cc3)cc2)C2(C)C(C)CCC3(CCC(=O)C32)C(C)C1O (stereo not drawn) [compound 16C]	M. pneumoniae count in time-kill curve	6.342
O=C(O)c1cn(C2CC2)c2cc(N3CCNCC3)c(F)cc2c1=O	M. pneumoniae count in time-kill curve	4.952

Shifting focus to the molecule that follows.
Ask: State its M. pneumoniae count in time-kill curve for this molecule: CN(C)[C@@H]1C(O)=C(C(N)=O)C(=O)[C@@]2(O)C(O)=C3C(=O)c4c(O)cccc4[C@@](C)(O)[C@H]3C[C@@H]12
Reply: 4.677
